Tested on: IGROV-1
Assay: NCI tumour cell line growth inhibition, 48 h
The source made the active and inactive calls. No stated cut-off is given here; in the data, active = GI50 up to about 1.1 µM and inactive = higher.
// classify into True = active, False = inactive

Worked examples, 2 molecules total:
1. O=C(O)c1cc(O)c2c(c1)C([C@@H]1c3cccc(O)c3C(=O)c3c(O)cc(C(=O)O)cc31)c1cccc(O)c1C2=O (stereo not given in full)	False
2. Nc1cc(OCc2ccccc2)c(OCc2ccccc2)cc1C=O	False

Prompt: Record lookup: outcome of this test for CC1(C)SC2C(NC(=O)C(C(=O)O)c3ccccc3)C(=O)N2C1C(=O)O (stereo not given) ?
Response: False

Prompt: How did this test come out for Cn1c(=O)n2n(c1=O)C1C(=CC2)C2C=CC1n1c(=O)n(C)c(=O)n12 (stereo not given) ?
Response: False

Prompt: Answer briefly: the call reported for `NCCCCC(=O)c1cccnc1` in this assay.
Response: False

Prompt: GET /call?item= `C=CC[C@H]1[C@@H](O[Si](C)(C)C(C)(C)C)[C@H](n2ccc(=O)[nH]c2=O)O[C@@H]1CO[Si](C)(C)C(C)(C)C` returns the recorded outcome of this test.
Response: False

Prompt: Kindly provide the recorded test outcome for the following molecule: CC1(C)C/N=C/C(C)(OCc2ccccc2)C(=O)NC(C)(C)C/N=C/C(C)(OCc2ccccc2)C(=O)N1 (stereo not given)
Response: False

----------
System: Malme-3M
Assay: NCI tumour cell line growth inhibition, 48 h
The source made the active and inactive calls. Rule as the data show it: active = GI50 up to about 1.1 µM and inactive = higher.
Quantity Name: GI50

1. COc1ccc(S(=O)(=O)N(C)CC(=O)O)cc1	> 100 µM (inactive)
2. N#CC12COC3(CCCCC3C1(C#N)C#N)OC2=N (stereo unspecified)	16.3 µM (inactive)
3. CCCCCCCCCCCCC(Br)C(=O)NCC(N)=O (stereo unspecified)	13.2 µM (inactive)
4. CCOC(=O)/C=C(\C(=O)OCC)n1ccc(=O)n(Cc2cnnn2COCCOC(C)=O)c1=O	2.04 µM (inactive)

Measured GI50 for this entry C=CC1(c2ccccc2Cl)N/C(=C/OCC)CO1 (stereo unspecified) on Malme-3M: > 100 µM (inactive)

# `O=C(NCC(C(=O)OCc1ccccc1)C(=O)OCc1ccccc1)OCc1ccccc1` with Malme-3M: GI50 is > 100 µM (inactive)

Field GI50 (system: Malme-3M) for entry `O/N=C1\CCc2cc3c(cc21)CCC3` = > 100 µM (inactive)

----------
Tested on: OVCAR-3
Test: NCI tumour cell line growth inhibition, 48 h
Active and inactive are the calls of the source. Cut-off read from the data, not from the text of the source: active = GI50 up to about 1.1 µM and inactive = higher.
Entries and their measured GI50 follow.

1) COC1OC(COCc2ccc(Cl)cc2)C(OCc2ccc(Cl)cc2)C1O (stereo not given)	19.7 µM (inactive)

response.value for `O=C1c2ccccc2/N=C(/c2cc3c(cc2Cl)Sc2nccn2S3(=O)=O)OS(=O)(=O)N1c1ccccc1` (field: GI50) = 37 µM (inactive)

// recorded GI50 for `CCOC(=O)CCC1(CCC(=O)OCC)CCCCCCCCC(CCC(=O)OCC)(CCC(=O)OCC)C(=O)C1=O` : > 100 µM (inactive)

----------
Tested on: MOLT-4
Assay: NCI tumour cell line growth inhibition, 48 h
The source made the active and inactive calls. Cut-off read from the data, not from the text of the source: active = GI50 up to about 1.1 µM and inactive = higher.
In this exercise, the only acceptable responses are active, inactive

// known answers, use as guide
1) CN(C)CCNC(=O)c1cc(Cl)cc2cc3ccccc3nc12	active
2) COc1ccccc1/C=C1\N=C(C)OC1=O	inactive
3) CN(CC(=O)O)c1ncc2c(n1)C=CCC2	inactive
4) c1ccc2c(c1)SCCc1cn[nH]c1-2	inactive
5) c1ccc2c(c1)[Se]c1ccccc1[Se]2	inactive

Prompt: Identify the outcome logged in this assay for the compound shown: `CC(C)(C)OC(=O)[C@@H]1CCC(=S)N1Cc1ccccc1`
Response: inactive

Prompt: GET /call?item= `O=c1oc2ccccc2c2c(=O)c3ccc(OC/C(=N/O)c4ccc(Cl)cc4)cc3oc12` returns the recorded outcome of this test.
Response: inactive

Prompt: Identify the outcome logged in this assay for the compound shown: `Cc1ccc(C(=O)/C=C2\Nc3ccccc3NC2=O)cc1`
Response: inactive

Prompt: Record lookup: outcome of this test for `NS(=O)(=O)c1ccc(-c2ccc([As](=O)(O)O)cc2)cc1` ?
Response: inactive

Prompt: How was `C=CCN(c1cc(OC)c2[nH]cc(C)c2c1[N+](=O)[O-])S(C)(=O)=O` classified in this test?
Response: inactive

Prompt: Tell me the assay call for CC1OC23CCCCC2C(C#N)(C#N)C1(C#N)C(=N)O3 (stereo not given) please.
Response: inactive

Prompt: Fill in: this test's call for CCOP(=O)(OCC)OC1CC(n2cc(C)c(=O)n(C)c2=O)OC1CO[Si](C)(C)C(C)(C)C (stereo not given) is ___
Response: inactive

Prompt: Which outcome was assigned to `CCC1(CC)C(=O)CC[C@@]2(C)C1=CC[C@H]1[C@@H]3CC[C@H](O)[C@@]3(C)CC[C@@H]12` in this test?
Response: inactive

Prompt: Short answer needed: outcome of this test for `CCOC(=O)C(C)(NC(=O)c1ccc(NCc2ccc3nc(NC(=O)c4ccccc4)nc(NC(=O)c4ccccc4)c3c2)cc1)C(=O)OCC` ?
Response: inactive

----------
Tested on: OVCAR-4
Assay: NCI tumour cell line growth inhibition, 48 h
Calls of active or inactive are those of the source. Rule as the data show it: active = GI50 up to about 1.1 µM and inactive = higher.
Entries annotated with measured GI50

# GI50 measured on OVCAR-4 for item `O=c1cc(NNc2cccc(Cl)c2)[nH]c(=O)[nH]1` = > 100 µM (inactive)

Measured GI50 (OVCAR-4), entry CC(=O)OCC1OC(Nc2ncc(-c3ccc(C)cc3)s2)C(OC(C)=O)C(OC(C)=O)C1OC(C)=O (stereo unspecified) : 27 µM (inactive)

Measured GI50 (OVCAR-4), entry `O=C(O)c1ccc(C(=O)O)c2c(C(=O)O)ccc(C(=O)O)c12` : > 100 µM (inactive)

# GI50 measured on OVCAR-4 for item CC(C)(C)OC(=O)NCCCCC1NC(=O)[C@@H]2Cc3c([nH]c4ccccc34)C(C3CCCCC3)N2C1=O (stereo partly specified) = 35.8 µM (inactive)

For the compound `CN(C1=NCCO1)c1cccc2ccccc12` , the measured GI50 on OVCAR-4 was > 10 µM (inactive)

Summary line: O=C1CC2(c3ccccc3)ON=C(c3ccccc3)N2c2ccccc2N1 (stereo unspecified) , OVCAR-4, reported GI50 = > 100 µM (inactive)

GI50 for OVCAR-4 with input O=C1CSC2=NC3=C(CSC/C3=C\c3ccc(Cl)cc3)C(c3ccc(Cl)cc3)N12 (stereo unspecified) equals 4.46 µM (inactive)

The reported OVCAR-4 GI50 of `O=c1cc(N2CCOCC2)[nH]c(=O)n1-c1cccc(C(F)(F)F)c1` is > 100 µM (inactive)

Entry `C=CCN(c1cc(OC)c2[nH]cc(C)c2c1[N+](=O)[O-])S(C)(=O)=O` ; assay system OVCAR-4; GI50 recorded at > 100 µM (inactive)

`CCn1c(=N)sc2nc3ccccc3n2c1=O` on OVCAR-4 gives GI50 = > 100 µM (inactive)

Per the reported OVCAR-4 data, Nc1ncnc2c1nc(Cl)n2C1OC2COP(=O)(O)OC2C1O (stereo unspecified) has GI50 of 24.2 µM (inactive)

Sample `CC1CCN(c2nnc(Cl)cc2C(=O)c2ccccc2)CC1` , system: OVCAR-4. Its GI50 is 29.2 µM (inactive)

GI50 on OVCAR-4 for C[n+]1ccc(-c2cc[n+](C)cc2)cc1 [PARAQUAT DICHLORIDE] is 1.55 µM (inactive)

Form field GI50 for item `CC=C/C=C/[C@@H]1O[C@](O)([C@H](CC)C(=O)NC/C=C/C=C(\C)[C@@H](OC)[C@@H](C)[C@@H]2O[C@H](/C=C/C=C/C=C(\C)C(=O)c3c(O)cc[nH]c3=O)[C@H](O)[C@@H]2O)[C@H](O)[C@H](O)C1(C)C` on OVCAR-4: > 100 µM (inactive)

Entry `COc1cccc(SSc2cccc(OC)c2C(=O)O)c1C(=O)O` ; assay system OVCAR-4; GI50 recorded at > 100 µM (inactive)

The compound `CC(C)(C)OC(=O)[C@@H]1CCC(=S)N1Cc1ccccc1` on OVCAR-4: GI50 was > 100 µM (inactive)

----------
Tested on: TK-10
Assay: NCI tumour cell line growth inhibition, 48 h
The source made the active and inactive calls. Cut-off read from the data, not from the text of the source: active = GI50 up to about 1.1 µM and inactive = higher.
Listed molecules paired with reported GI50

Just so you know, measured GI50 for COC(=O)C(=O)C(C(=O)OC)C(=O)C(=O)Nc1c(C)cccc1C (centres undefined) came out at > 100 µM (inactive)

Memo: `CC(=O)Oc1ccc(C(c2ccc(OC(C)=O)cc2)c2ccccn2)cc1` , reported GI50: 81.3 µM (inactive)

The reported value for `CN1C(=O)CC(=O)N1/C(=C/c1ccccc1)c1ccccc1` in terms of GI50 is 33 µM (inactive)

The reported value for COc1cc([C@@H]2c3cc4c(cc3[C@H](OC3OC5COC(C(C)C)OC5C(O)C3O)C3COC(=O)[C@@H]32)OCO4)cc(OC)c1O (some centres undefined) in terms of GI50 is 23.5 µM (inactive)

Quick note, GI50 for C=CC1(c2ccccc2Cl)N/C(=C/OCC)CO1 (centres undefined) landed at > 100 µM (inactive)
